Test: Permeability from basolateral to apical side in human Caco2 cellsassessed as drug recovery at 10^-5 M at pH 6.5 to 7.4
Type: ADME, cell-based
Details: Caco-2, pH 6.5, read-out: permeability
measured.endpoint: recovery at 10 µM (%)
Note: unit % is implicit; provide only the numeric part.

Asked: Consider the compound Cc1ccc(C2=CCC(C)(C)c3ccc(C(=O)Nc4ccc(C(=O)O)cc4)cc32)cc1 and give its measured recovery at 10 µM.
Given back: 46

###

Assay: Metabolic stability in CD1 mouse liver microsomes assessed as parent compound remaining at 10^-6 M after 60 mins
Type: ADME, Microsome
Conditions: read-out: Stability
measured.endpoint: remaining at 1 h, 1 µM (%)
Note: unit % is implicit; provide only the numeric part.

[[record]]
chemical_structure = "Cc1ccc(C2=CCC(C)(C)c3ccc(C(=O)Nc4ccc(C(=O)O)cc4)cc32)cc1"
recorded_number = 49


Read the next record carefully.
Asked: Consider the molecule CC1(C)CC=C(c2ccccc2)c2cc(/C=C/c3ccc(C(=O)O)cc3)ccc21 and give its measured remaining at 1 h, 1 µM.
Given back: 79

###

Recorded recovery at 10 µM for the following molecules
Experiment: Permeability from apical to basolateral side in human Caco2 cells assessed as drug recovery at 10^-5 M at pH 6.5 to 7.4
Assay type: ADME, cell-based
Conditions: Caco-2, pH 6.5, read-out: permeability
Note: unit % is implicit; provide only the numeric part.

[[record]]
chemical_structure = "Cc1ccc(C2=CCC(C)(C)c3ccc(C(=O)Nc4ccc(C(=O)O)cc4)cc32)cc1"
measured_endpoint = "recovery at 10 µM"
recorded_number = 20


Read the next record carefully.
Asked: Consider the molecule CC1(C)CC=C(c2ccccc2)c2cc(/C=C/c3ccc(C(=O)O)cc3)ccc21 and give its measured recovery at 10 µM.
Given back: 14

###

Tested on: Caco-2
Assay: Permeability from basolateral to apical side in human Caco2 cells at 10^-5 M at pH 6.5 to 7.4
Type: ADME, cell-based
Settings: caco-2, pH 6.5, 10 µM
measured.endpoint: permeability
Put down the number, then write its unit next to it.

Asked: Consider the compound Cc1ccc(C2=CCC(C)(C)c3ccc(C(=O)Nc4ccc(C(=O)O)cc4)cc32)cc1 and give its measured permeability.
Given back: 0.7 ×10⁻⁶ cm/s
